Tested on: PC49
Test: qHTS profiling for inhibitors of Plasmodium falciparum proliferation (AID 504749); further: nearly all actives have a fitted effect of over 60% in size
Details: P. falciparum in erythrocytes, SYBR Green DNA, 72 h; series mostly up to 28.7 µM
Protocol: NIH National Institute of Allergy and Infectious Diseases [NIAID] NIH Chemical Genomics Center [NCGC] […] Because mature erythrocytes lack DNA, only Plasmodium-derived DNA is detected. NCGC Assay Protocol Summary: The SYBR Green viability assay was adapted from a method described previously (Plouffe et al., 2008). […] The following morning, fluorescence intensity at 485(14) nm excitation and 535(25) nm emission wavelengths was measured on an EnVision (Perkin Elmer) plate reader. […]
Records with an inconclusive call do not appear. The source made the active and inactive calls. The call rests on the fitted dose curve; in most records, active means well fitted inhibition curve with a large enough effect; inconclusive means small, poorly fitted or top-dose-only effect; inactive means flat fitted curve, though single readings scatter.
Could you please pick one outcome from this set? active, inactive

• CCN1C[C@]2(COC)[C@H](O)C[C@H](OC)[C@]34C1C([C@H](OC)[C@H]23)[C@]1(OC(C)=O)C2[C@@H](OC(=O)c3ccccc3)C(O)(C[C@H]24)[C@@H](OC)[C@@H]1O = inactive

# outcome recorded in this test, key = CC(C)[C@@]1(NC(=O)[C@H]2CC3c4cccc5[nH]cc(c45)C[C@H]3N(C)C2)O[C@@]2(O)C3CCCN3C(=O)[C@@H](Cc3ccccc3)N2C1=O (some centres undefined) active

# outcome recorded in this test, key = "C[N+](C)(C)CC(=O)[O-]" inactive

# outcome recorded in this test, key = "CCN(CC)CCO[C@H]1CC[C@@]2(C)C(=CC[C@@H]3[C@H]2CC[C@]2(C)C(=O)CC[C@H]32)C1" inactive
